# Test system: RAW 264.7 (the murine macrophage cell line)
# TEST_NAME: Cytotoxicity of macrophages (MTT assay)
# Type: cell-based
# PARTICULARS: Mus musculus, RAW264.7; RAW 264.7, LPS 1 μg/ml, 24 hours; read-out: Cell viability(μM) (IC50, MTT assay)
EXPERIMENTAL_ENDPOINT: IC50

State, for RAW 264.7 (the murine macrophage cell line), measured IC50 of the compound listed here: "CN1C(=O)C(c2ccc(Cl)cc2)=C(c2ccc(S(N)(=O)=O)cc2)C1=O"
> 10 µM
